# Test system: LOC_OS04G38480-cb003
# Sequence (as listed by the source): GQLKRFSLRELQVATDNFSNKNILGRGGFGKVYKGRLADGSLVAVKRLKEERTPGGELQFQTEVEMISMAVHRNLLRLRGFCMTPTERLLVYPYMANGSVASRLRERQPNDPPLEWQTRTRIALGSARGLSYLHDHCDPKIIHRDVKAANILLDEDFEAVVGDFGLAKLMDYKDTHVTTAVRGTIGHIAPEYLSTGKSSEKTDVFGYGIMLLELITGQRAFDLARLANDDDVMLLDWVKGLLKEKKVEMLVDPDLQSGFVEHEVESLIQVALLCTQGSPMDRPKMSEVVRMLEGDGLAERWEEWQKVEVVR
# assay.method.text: thermal shift delta Tm vs DMSO control; higher = stronger stabilization (binding);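 further: purified Escherichia coli-expressed rice kinase domain construct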
# assay.setup: 12.5 µM; protein concentration 2 µM
value.kind: thermal shift delta Tm (°C)
One number for each entry, in °C.

smiles_str=Cn1cc(-c2ccc(F)c(C(F)(F)F)c2)nc1C1CCN(c2ncnc3[nH]ncc23)CC1 subject_of_test=LOC_OS04G38480-cb003 units_of_measure=°C reported_value=0.91
smiles_str=Nc1ccc(-c2ccc3ncc4ccc(=O)n(-c5cccc(C(F)(F)F)c5)c4c3c2)cn1 subject_of_test=LOC_OS04G38480-cb003 units_of_measure=°C reported_value=0.88

Kindly note the recorded thermal shift delta Tm for CN1C(=O)[C@@H](NC(=O)c2n[nH]c(Cc3ccccc3)n2)COc2ccccc21 , which is 2

* * *

# Tested on: LOC_OS03G50450-cb001
# assay.method.text: thermal shift delta Tm vs DMSO control; higher = stronger stabilization (binding)
# assay.setup: 12.5 µM; protein concentration 2 µM
value.kind: thermal shift delta Tm (°C)
Give bare numbers, in °C.

Worked examples follow.
smiles_str=OCCn1cc(-c2cnc3nnn(Cc4ccc5ncccc5c4)c3n2)cn1 subject_of_test=LOC_OS03G50450-cb001 reported_value=0.8
smiles_str=Nc1ccc(C(=O)Nc2cccc(-c3nc(N4CCOCC4)c4oc5ncccc5c4n3)c2)cn1 subject_of_test=LOC_OS03G50450-cb001 reported_value=0.25

Pending molecule:
Kindly note the recorded thermal shift delta Tm for CNC(=O)c1ccccc1Nc1nc(Nc2ccc(N3CCOCC3)cc2OC)ncc1Cl , which is 0.26

* * *

# System: LOC_OS06G16330-cb003
# Sequence (as listed by the source): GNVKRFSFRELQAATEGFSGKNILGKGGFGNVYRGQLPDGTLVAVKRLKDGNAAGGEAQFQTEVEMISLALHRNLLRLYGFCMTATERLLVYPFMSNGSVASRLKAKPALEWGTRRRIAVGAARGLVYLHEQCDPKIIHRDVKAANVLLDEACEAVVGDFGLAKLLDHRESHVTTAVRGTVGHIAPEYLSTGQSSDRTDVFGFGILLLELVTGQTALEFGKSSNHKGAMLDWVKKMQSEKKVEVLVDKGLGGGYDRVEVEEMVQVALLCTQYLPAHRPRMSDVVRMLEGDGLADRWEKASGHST
# assay.method.text: thermal shift delta Tm vs DMSO control; higher = stronger stabilization (binding)
# assay.setup: 12.5 µM; protein concentration 2 µM
Counter-ions that a name gives are not always drawn.
Please provide measured thermal shift delta Tm for the entries that follow.
Give bare numbers, in °C.

compound=Cn1ncc(Cl)c1-c1cc(C(=O)N[C@H](CN)Cc2ccc(F)c(F)c2)oc1Cl subject_of_test=LOC_OS06G16330-cb003 value_kind="thermal shift delta Tm" units_of_measure=°C reported_value=1.15

Value sought for every listed compound: thermal shift delta Tm.
1. Cc1cn(-c2cc(NC(=O)c3ccc(C)c(Nc4nccc(-c5cccnc5)n4)c3)cc(C(F)(F)F)c2)cn1
2. Cc1c(CN2CCN(C(=O)[C@H](C)O)CC2)sc2c(N3CCOCC3)nc(-c3cnc(N)nc3)nc12
3. CN(C)Cc1cccc(N=C(c2ccccc2)c2c(O)[nH]c3cc(C(=O)N(C)C)ccc23)c1
4. O=C(c1ccc(Nc2nccc(-c3cc4ccccc4s3)n2)cc1)N1CCC(N2CCCC2)CC1
5. Cc1cc([C@@H](C)Nc2ccccc2C(=O)O)c2nc(N3CCOCC3)cc(=O)n2c1
6. Fc1ccc2[nH]ccc2c1-c1nc(N2CCOCC2)c2sc(CN3CCN(CC4CC4)CC3)cc2n1
7. O=c1nc(N2CCOCC2)oc2c(-c3cccc4c3sc3ccccc34)cccc12
8. COc1cc2c3cc1Oc1c(OC)c(OC)cc4c1[C@@H](Cc1ccc(O)c(c1)Oc1ccc(cc1)C[C@@H]3N(C)CC2)N(C)CC4 [Berbamine (dihydrochloride)]

Given back:
[-0.09, 0.88, 0.77, 9.02, -0.44, -0.11, -1.74, -0.31]

Kindly note the recorded thermal shift delta Tm for COc1cc2c(N3CCN(C(=O)Nc4ccc(OC(C)C)cc4)CC3)ncnc2cc1OCCCN1CCCCC1 , which is -1.38

The reported numbers originate from the supplement of paper PMC9694430.
